Please go through the items and note down their Population Hoechst High Intensity Objects (%).
test system: HEK-293T; test: Multiplex assay against HEK293T; format: toxicity, cell-based; conditions: human, 12 h, 10 µM, compound concentration 10 uM, replicate 1
Write the value in % as a bare number.

Prompt: Entry c1cn2cc(-c3ccc4cn[nH]c4c3)nc(Nc3ccc(N4CCOCC4)cc3)c2n1 has what Population Hoechst High Intensity Objects (%)?
Response: 27

Prompt: Entry C=CC(=O)Nc1ccc2ncnc(Nc3ccc(OCc4cccc(F)c4)c(Cl)c3)c2c1.Cc1ccc(S(=O)(=O)O)cc1 has what Population Hoechst High Intensity Objects (%)?
Response: 12

Prompt: Entry O=C1NCN(c2ccccc2)C12CCN(CCCOc1ccc(F)cc1)CC2 [SPIRAMIDE] has what Population Hoechst High Intensity Objects (%)?
Response: 17

Prompt: Entry Cc1csc2c(N[C@@H](C)CN3CCN(S(=O)(=O)c4ccc(Cl)c(Cl)c4)CC3)ncnc12 has what Population Hoechst High Intensity Objects (%)?
Response: 11

Prompt: Entry COc1cc2nccc(Oc3ccc(NC(=O)Nc4cc(C)on4)c(Cl)c3)c2cc1OC.O has what Population Hoechst High Intensity Objects (%)?
Response: 13

Prompt: Entry CN1CCN(c2ccc(OC(F)(F)F)c(Nc3ncc4c(n3)-c3c(c(C(N)=O)nn3CCO)CC4)c2)CC1 has what Population Hoechst High Intensity Objects (%)?
Response: 12

Prompt: Entry Cc1[nH]c(/C=C2\C(=O)Nc3ccc(S(=O)(=O)N(C)c4cccc(Cl)c4)cc32)c(C)c1C(=O)N1CCN(C)CC1 has what Population Hoechst High Intensity Objects (%)?
Response: 15

Prompt: Entry Cc1c(-c2ccc(O)cc2)n(Cc2ccc(OCCN3CCCCCC3)cc2)c2ccc(O)cc12 has what Population Hoechst High Intensity Objects (%)?
Response: 21

---

system: Fibroblast; experiment: Multiplex assay against human fibroblast; format: toxicity, cell-based; details: 48 h, 10 µM, compound concentration 10 uM, replicate 2
readoutKind: Population Mitotic Cells (%)
Write the value in % as a bare number.

Prompt: Entry CN(C)C(=O)N[C@H]1CC[C@H](CCN2CCN(c3cccc(Cl)c3Cl)CC2)CC1.Cl [CARIPRAZINE HYDROCHLORIDE] has what Population Mitotic Cells (%)?
Response: 66

Prompt: Entry CN1CCCC(n2nc(Cc3ccc(Cl)cc3)c3ccccc3c2=O)CC1.Cl (centres undefined) [AZELASTINE HYDROCHLORIDE] has what Population Mitotic Cells (%)?
Response: 33

Prompt: Entry Cc1nc(-c2ccc(-c3ccc(C(=O)N4CCc5cc6c(cc54)C4(CCN(C)CC4)CO6)cc3)c(C)c2)no1 [SB-224289] has what Population Mitotic Cells (%)?
Response: 0

Prompt: Entry CN1CCN(CCOc2cc(OC3CCOCC3)c3c(Nc4c(Cl)ccc5c4OCO5)ncnc3c2)CC1 [SARACATINIB] has what Population Mitotic Cells (%)?
Response: 0

---

test system: Fibroblast; assay: Multiplex assay against human fibroblast; format: toxicity, cell-based; conditions: 24 h, 1 µM, compound concentration 1 uM, replicate 1
readoutKind: Population Mitotic Cells (%)
Write the value in % as a bare number.

Prompt: # returns recorded Population Mitotic Cells (%) (system: Fibroblast) for CC(C)(O)CNc1ncc(-c2ccnc(Nc3ccnc(Cl)c3)n2)c(CC2CC2)n1
Response: 46

Prompt: # returns recorded Population Mitotic Cells (%) (system: Fibroblast) for CN(C)C(=O)N[C@H]1CC[C@H](CCN2CCN(c3cccc(Cl)c3Cl)CC2)CC1.Cl [CARIPRAZINE HYDROCHLORIDE]
Response: 28

Prompt: # returns recorded Population Mitotic Cells (%) (system: Fibroblast) for C[C@@H](NCCCc1cccc(C(F)(F)F)c1)c1cccc2ccccc12.Cl [CINACALCET HYDROCHLORIDE]
Response: 61

Prompt: # returns recorded Population Mitotic Cells (%) (system: Fibroblast) for CNc1nc(NCc2ccc(NS(C)(=O)=O)cc2Cl)cc(-c2ccccn2)n1
Response: 29

Prompt: # returns recorded Population Mitotic Cells (%) (system: Fibroblast) for Cc1nc(Nc2n[nH]c3c2CN(C(=O)N[C@H](CN(C)C)c2ccccc2)C3(C)C)c2sccc2n1
Response: 29

Prompt: # returns recorded Population Mitotic Cells (%) (system: Fibroblast) for CN(C)C(=O)/C(C#N)=C/c1ccc(-c2nc3cnc4[nH]ccc4c3n2C2CCCCC2)o1
Response: 56

Prompt: # returns recorded Population Mitotic Cells (%) (system: Fibroblast) for C[C@@]1(C(=O)Nc2ccc(F)nc2)CCCN1c1nc(Nc2cc(C3CC3)n[nH]2)c2cccn2n1
Response: 36

Prompt: # returns recorded Population Mitotic Cells (%) (system: Fibroblast) for Cc1cc(C)cc(-c2cnc3cc(Cl)c(-c4cccc(O)c4)cc3c2OCCCN)c1
Response: 60
